- System: Mus musculus
- assayExplanation: Anticonvulsant activity in Kunming mouse assessed as MES-induced hind limb extension at 100 mg/kg, ip administered 0. 5 to 4 hrs before MES stimulation relative to control
- Type: functional
Active and inactive are the calls of the source. No cut-off for these calls is given here.
measurementName: Activity

>>> recordedmeasurement("COc1cc(OC)c(OC)cc1/C=C/COC(=O)/C=C/c1cccc(F)c1")
"25 - 100%"
>>> recordedmeasurement("COc1cc(OC)c(OC)cc1/C=C/COC(=O)/C=C/c1ccccc1C(F)(F)F")
"25 - 100%"
>>> recordedmeasurement("COc1cc(OC)c(OC)cc1/C=C/COC(=O)/C=C/c1c(OC)c(OC)c(OC)c(OC)c1OC")
"inactive"
>>> recordedmeasurement("COc1cc(OC)c(OC)cc1/C=C/COC(=O)/C=C/c1cc(OC)c(OC)cc1OC")
"25 - 100%"
>>> recordedmeasurement("COc1cc(OC)c(OC)cc1/C=C/COC(=O)/C=C/c1c(OC)c(OC)cc(OC)c1OC")
"25 - 100%"
>>> recordedmeasurement("COc1ccc(/C=C/C(=O)OC/C=C/c2cc(OC)c(OC)cc2OC)cc1")
"25 - 100%"
>>> recordedmeasurement("COc1ccccc1/C=C/C(=O)OC/C=C/c1cc(OC)c(OC)cc1OC")
"25 - 100%"
>>> recordedmeasurement("COc1ccc(/C=C/C(=O)OC/C=C/c2cc(OC)c(OC)cc2OC)c(OC)c1")
"25 - 100%"
>>> recordedmeasurement("COc1cc(OC)c(OC)cc1/C=C/COC(=O)/C=C/c1ccccc1F")
"inactive"
>>> recordedmeasurement("COc1cc(OC)c(OC)cc1/C=C/COC(=O)/C=C/c1c(OC)cc(OC)c(OC)c1OC")
"25 - 100%"

---

- assayExplanation: Tmax in Sprague-Dawley rat at 50 mg/kg, po measured upto 480 mins by LC-MS/MS analysis
- Type: ADME, organism-based
- protocolConditions: in vivo
measurementName: Tmax (min)

>>> recordedmeasurement("COc1cc(OC)c(OC)cc1/C=C/COC(=O)/C=C/c1cc(OC)c(OC)c(OC)c1OC")
35.6
>>> recordedmeasurement("COc1cc(OC)c(OC)cc1/C=C/COC(=O)/C=C/c1c(OC)cc(OC)c(OC)c1OC")
38.7

---

- assayExplanation: Protective index, ratio of TD50 for neurotoxicity against ip dosed Kunming mouse assessed as time remained in rod measured at 0.5 hrs by rotarod test to ED50 for anticonvulsant activity in ip dosed Kunming mouse assessed as MES-induced hind limb extension administered 0.5 hrs
- Type: toxicity, organism-based
- protocolConditions: in vivo, read-out: PI
measurementName: selectivity ratio at 0.5 h

>>> recordedmeasurement("COc1cc(OC)c(OC)cc1/C=C/COC(=O)/C=C/c1cc(OC)c(OC)c(OC)c1OC")
"> 32.4"
>>> recordedmeasurement("COc1ccc(/C=C/C(=O)OC/C=C/c2cc(OC)c(OC)cc2OC)cc1")
"> 14.2"
>>> recordedmeasurement("COc1cc(OC)c(OC)cc1/C=C/COC(=O)/C=C/c1ccc(Br)cc1")
17.1
>>> recordedmeasurement("COc1cc(OC)c(OC)cc1/C=C/COC(=O)/C=C/c1cc(OC)c(OC)cc1OC")
"> 13.6"
>>> recordedmeasurement("COc1cc(OC)c(OC)cc1/C=C/CO")
11.1
>>> recordedmeasurement("COc1cc(OC)c(OC)cc1/C=C/COC(=O)/C=C/c1ccc(F)cc1")
"> 28.9"
>>> recordedmeasurement("COc1cc(OC)c(/C=C/C(=O)OC/C=C/c2cc(OC)c(OC)cc2OC)c(OC)c1")
"> 14.3"
>>> recordedmeasurement("COc1cc(OC)c(OC)cc1/C=C/COC(=O)/C=C/c1ccccc1C(F)(F)F")
"> 11.7"
>>> recordedmeasurement("COc1cc(OC)c(OC)cc1/C=C/COC(=O)/C=C/c1ccc(Cl)cc1")
"> 18.7"
